- TARGET DESC: ABCB1 (Homo sapiens, UniProt P08183)
- Sequence (P08183 whole entry): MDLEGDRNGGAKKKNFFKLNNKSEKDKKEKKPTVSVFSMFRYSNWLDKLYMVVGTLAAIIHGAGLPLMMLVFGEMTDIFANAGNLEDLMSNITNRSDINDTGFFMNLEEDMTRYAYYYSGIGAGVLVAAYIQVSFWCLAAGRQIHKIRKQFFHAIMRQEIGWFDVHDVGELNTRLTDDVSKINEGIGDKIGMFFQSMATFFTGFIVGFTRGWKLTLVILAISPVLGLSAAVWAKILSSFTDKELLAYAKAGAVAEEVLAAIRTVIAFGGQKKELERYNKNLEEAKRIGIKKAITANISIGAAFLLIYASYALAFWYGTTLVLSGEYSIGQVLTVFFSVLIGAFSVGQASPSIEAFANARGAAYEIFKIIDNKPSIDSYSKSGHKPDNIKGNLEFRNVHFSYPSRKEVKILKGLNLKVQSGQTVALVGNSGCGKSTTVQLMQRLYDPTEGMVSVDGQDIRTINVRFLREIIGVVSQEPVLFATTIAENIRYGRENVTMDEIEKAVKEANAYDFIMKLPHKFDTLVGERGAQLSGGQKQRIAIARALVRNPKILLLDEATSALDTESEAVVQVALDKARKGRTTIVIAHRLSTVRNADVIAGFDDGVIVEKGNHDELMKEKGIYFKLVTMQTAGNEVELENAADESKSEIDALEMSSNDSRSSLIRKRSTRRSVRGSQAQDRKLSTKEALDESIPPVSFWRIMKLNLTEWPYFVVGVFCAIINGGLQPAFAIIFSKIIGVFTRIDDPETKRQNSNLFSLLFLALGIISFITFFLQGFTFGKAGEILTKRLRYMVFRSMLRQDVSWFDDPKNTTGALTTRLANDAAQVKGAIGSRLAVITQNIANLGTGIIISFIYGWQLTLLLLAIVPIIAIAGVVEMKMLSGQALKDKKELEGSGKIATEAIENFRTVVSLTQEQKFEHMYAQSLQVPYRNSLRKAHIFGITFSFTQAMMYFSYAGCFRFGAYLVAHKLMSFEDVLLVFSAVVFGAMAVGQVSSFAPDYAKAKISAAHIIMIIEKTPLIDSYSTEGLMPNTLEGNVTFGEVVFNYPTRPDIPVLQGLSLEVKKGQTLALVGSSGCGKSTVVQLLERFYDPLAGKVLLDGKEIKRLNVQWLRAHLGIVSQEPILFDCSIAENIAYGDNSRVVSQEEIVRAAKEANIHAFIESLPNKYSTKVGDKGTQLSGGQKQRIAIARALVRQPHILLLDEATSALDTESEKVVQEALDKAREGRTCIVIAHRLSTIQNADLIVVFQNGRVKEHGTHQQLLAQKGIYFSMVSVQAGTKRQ
- PROTOCOL DESCRIPTION: JC-1 efflux HyperCyt flow cytometry assay (ABCB1 reversal)
- MEASUREMENT CONTEXT: read-out: IC50 (SD), 50% inhibition of drug efflux determined in high-throughput screen; JC-1 efflux, DNR-resistant Jurkat cells
pIC50: −log10 of the molar value.
MEASUREMENT LABEL: pIC50

C[C@@H]1C[C@H]2[C@@H]3CCC4=CC(=O)C=C[C@]4(C)[C@@]3(Cl)[C@@H](O)C[C@]2(C)[C@@]1(OC(=O)c1ccco1)C(=O)CCl [Mometasone Furoate, mometasone furoate]: 6.13

Origin of the recorded values: patent US20090208493A1
